Molecular target: SARS-CoV-2 full length spike protein (wild type), conjugated to beads (SARS-CoV-2, UniProt P0DTC2 14-1208)
binding signal, bead assay below 500 fold over isotype gives Condition not met; binding signal, bead assay at or above it gives Condition met.

See these solved cases before continuing.
**Query** Would you say antibody 409 (antibody, V domains shown) VH: QVTLRESGPALVKPTQTLTLTCTFSGFSLSTSGMCVSWIRQPPGKALEWLALIDWDDDKYYSTSLKTRLTISKDTSKNQVVLTMTNMDPVDTATYYCARTTYYYVSGRRAEFDPWGQGTLVTVSS VL: NFMLTQPHSVSESPGKTVTISCTGSSGSIASNYVQWYQQRPGSAPTTVIYEDNQRPSGVPDRFSGSIDSSSNSASLTISGLKTEDEADYYCQSYDSSNQGVFGGGTKLTVL shows binding signal, bead assay at minimum 500 fold over isotype?
**Result** Condition met

**Query** Would you say antibody 380 (antibody, V domains shown) VH: QVQLVESGGGVVQPGRSLRLSCAASGFTLKNYGMHWVRQAPGKGLEWVIVLSFDGSDEYKADSVRGRFTVSRDNSKNTLFLQMNSLRPDDTAVYYCAREQPTMIEGGRGPFDIWGQGTMVTVSS VL: EVVMTQSPATLSVSPGDRATLSCRASQGVNSNLAWYQQKPGQAPRLLIYAASTRATGIPARFSASGSGTHFTLTISSLQSEDFAVYYCLQYNNWPPWTFGQGTKLEIK shows binding signal, bead assay at minimum 500 fold over isotype?
**Result** Condition not met

**Query** Would you say antibody 378 (antibody, V domains shown) VH: QVQLVQSGAEVKKPGASVKVSCKASGYTFTSYYMHWVRQAPGQGLEWMGIINPSGGSTSYAQKFQGRVTMTRDTSTSTVYMELSSLRSEDTAVYYCARDSGGMDDFWSGYYSPGGDYWGQGTLVTVSS VL: QSALTQPASVSGSPGQSITISCTGTSSDVGSYNLVSWYQQHPGKAPKLMIYEGSKRPSGVSNRFSGSKSGNTASLTISGLQAEDEADYYCCSYAGSSTWVFGGGTKLTVL shows binding signal, bead assay at minimum 500 fold over isotype?
**Result** Condition met

**Query** Would you say antibody 372 (antibody, V domains shown) VH: QVQLVESGGGVVQPGRSLRLSCAASGFTFSSYAMHWVRQAPGKGLEWVAVISYDGSNKYYADSVKGRFTISRDNSKNTLYLQMNSLRAEDTAVYYCARDLGTSALLWFGELFLNYGMDVWGQGTTVTVSS VL: QSALTQPRSVSGSPGQSVTISCTGTSSDVGGYNYVSWYQQHPGKAPKLMIYDVSKRPSGVPDRFSGSKSGNTASLTISGLQAEDEADYYCCSYAGSPILVFGGGTKLTVL shows binding signal, bead assay at minimum 500 fold over isotype?
**Result** Condition met

Moving on to the next binder.
**Query** Would you say antibody 385 (antibody, V domains shown) VH: QVQLVESGGGVVQPGRSLRLSCAASGFTFSSYAIHWVRQAPGKGLEWVAVISYDGSNKYYADSVKGRFTISRDNSKNTLYLQMNSLRAEDTAVYYCARPRSGSYWGAFDIWGQGTMVTVSS VL: QSVLTQPPSVSGAPGQRVTISCTGSSSNIGARYDVHWYQQLPGTAPKLLIYGNSNRPSGVPDRFSGSKSGTSASLAITGLQAEDEADYYCQSYDSSLRGVFGGGTKLTVL shows binding signal, bead assay at minimum 500 fold over isotype?
**Result** Condition met
